Rate of NBD-Toc transfer to SUV, Rate^mut/Rate^wt for assorted molecules
- assay: FRET assay of NBD-Toc transfer from α-TTP variants to SUVs
- Assay type: biochemical
- stated.conditions: relative to wild type
The reply should contain only the number, in %.

These recorded examples may help you get a feel for the data.
Note to self: Rate of NBD-Toc transfer to SUV, Rate^mut/Rate^wt recorded for F165D: α-TTP mutant, Phe165 to Asp (helix A8) (protein, UniProt P49638 1-278, looked up, variant F165D) Alpha-tocopherol transfer …: MAEARSQPSAGPQLNALPDHSPLLQPGLAALRRRAREAGVPLAPLPLTDSFLLRFLRARDFDLDLAWRLLKNYYKWRAECPEISADLHPRSIIGLLKAGYHGVLRSRDPTGSKVLIYRIAHWDPKVFTAYDVFRVSLITSELIVQEVETQRNGIKAIFDLEGWQDSHAFQITPSVAKKIAAVLTDSFPLKVRGIHLINEPVIFHAVFSMIKPFLTEKIKERIHMHGNNYKQSLLQHFPDILPLEYGGEEFSMEDICQEWTNFIMKSEDYLSSISESIQ was 10

Noted for F165A: α-TTP mutant, Phe165 to Ala (protein, UniProt P49638 1-278, looked up, variant F165A) Alpha-tocopherol transfer …: MAEARSQPSAGPQLNALPDHSPLLQPGLAALRRRAREAGVPLAPLPLTDSFLLRFLRARDFDLDLAWRLLKNYYKWRAECPEISADLHPRSIIGLLKAGYHGVLRSRDPTGSKVLIYRIAHWDPKVFTAYDVFRVSLITSELIVQEVETQRNGIKAIFDLEGWQASHAFQITPSVAKKIAAVLTDSFPLKVRGIHLINEPVIFHAVFSMIKPFLTEKIKERIHMHGNNYKQSLLQHFPDILPLEYGGEEFSMEDICQEWTNFIMKSEDYLSSISESIQ : its Rate of NBD-Toc transfer to SUV, Rate^mut/Rate^wt reads 29

# Rate of NBD-Toc transfer to SUV, Rate^mut/Rate^wt (molecule: M264D: α-TTP mutant; surface methionine replaced with aspartate in a region predicted distant from the membrane plane (protein, UniProt P49638 1-278, looked up, variant M264D) Alpha-tocopherol transfer …: MAEARSQPSAGPQLNALPDHSPLLQPGLAALRRRAREAGVPLAPLPLTDSFLLRFLRARDFDLDLAWRLLKNYYKWRAECPEISADLHPRSIIGLLKAGYHGVLRSRDPTGSKVLIYRIAHWDPKVFTAYDVFRVSLITSELIVQEVETQRNGIKAIFDLEGWQFSHAFQITPSVAKKIAAVLTDSFPLKVRGIHLINEPVIFHAVFSMIKPFLTEKIKERIHMHGNNYKQSLLQHFPDILPLEYGGEEFSMEDICQEWTNFIDKSEDYLSSISESIQ ) is 91

We now examine a further molecule.
Short answer for K217A: α-TTP mutant, surface Lys217 (helix A11) to Ala (protein, UniProt P49638 1-278, looked up, variant K217A) Alpha-tocopherol transfer …: MAEARSQPSAGPQLNALPDHSPLLQPGLAALRRRAREAGVPLAPLPLTDSFLLRFLRARDFDLDLAWRLLKNYYKWRAECPEISADLHPRSIIGLLKAGYHGVLRSRDPTGSKVLIYRIAHWDPKVFTAYDVFRVSLITSELIVQEVETQRNGIKAIFDLEGWQFSHAFQITPSVAKKIAAVLTDSFPLKVRGIHLINEPVIFHAVFSMIKPFLTEAIKERIHMHGNNYKQSLLQHFPDILPLEYGGEEFSMEDICQEWTNFIMKSEDYLSSISESIQ : Rate of NBD-Toc transfer to SUV, Rate^mut/Rate^wt was 102
